Tested on: HCT-116
Test: Cytotoxicity against human HCT116 cells assessed as growth inhibition after 48 hrs by sulphorhodamine B assay
Format: functional, cell-based
Settings: HCT-116, 48 h
measured.quantity: IC50 (µM)

1) CC1=C2[C@H]3OC(=O)[C@@H](CSc4ccc(F)cc4)[C@@H]3CC[C@@]2(C)C=CC1=O :: 0.8
2) CC1=C2[C@H]3OC(=O)[C@@H](CSc4nc5ccccc5n4C)[C@@H]3CC[C@@]2(C)C=CC1=O :: 20.7
3) CC1=C2[C@H]3OC(=O)[C@@H](CSc4ccccc4C)[C@@H]3CC[C@@]2(C)C=CC1=O :: 21.5
4) CC1=C2[C@H]3OC(=O)[C@@H](CSc4ccccc4Cl)[C@@H]3CC[C@@]2(C)C=CC1=O :: 16.6
5) CCSC[C@@H]1C(=O)O[C@@H]2C3=C(C)C(=O)C=C[C@]3(C)CC[C@@H]12 :: 16.5
6) CC1=C2[C@H]3OC(=O)[C@@H](CSc4ccc(C)c(Br)c4)[C@@H]3CC[C@@]2(C)C=CC1=O :: 0.8
7) CC1=C2[C@H]3OC(=O)[C@@H](CSc4ccc(Br)cc4C)[C@@H]3CC[C@@]2(C)C=CC1=O :: 1.4
8) CC1=C2[C@H]3OC(=O)[C@@H](CSc4ccc(Cl)cc4)[C@@H]3CC[C@@]2(C)C=CC1=O :: 0.8

----------
System: HCT-116
Assay: Cytotoxicity against human HCT116 cells assessed as growth inhibition after 48 hrs by sulphorhodamine B assay
Type: functional, cell-based
Settings: HCT-116, 48 h
IC50 for assorted compounds
measured.quantity: IC50 (µM)

1) O=c1[nH]cc(F)c(=O)[nH]1 :: 4.5
2) CC1=C2[C@H]3OC(=O)[C@@H](CSc4ccc(Br)cc4)[C@@H]3CC[C@@]2(C)C=CC1=O :: 1.2
3) COc1ccccc1SC[C@@H]1C(=O)O[C@@H]2C3=C(C)C(=O)C=C[C@]3(C)CC[C@@H]12 :: 45.9

----------
Tested on: A549
Assay: Cytotoxicity against human A549 cells assessed as growth inhibition after 48 hrs by sulphorhodamine B assay
Assay type: functional, cell-based
Settings: A549, 48 h
Simple rule here: IC50 less than 9 µM is Satisfied, otherwise Not satisfied.

1. CC1=C2[C@H]3OC(=O)[C@@H](CSc4ccc(Cl)cc4)[C@@H]3CC[C@@]2(C)C=CC1=O :: Satisfied
2. CC1=C2[C@H]3OC(=O)[C@@H](CSc4ccc(Br)cc4)[C@@H]3CC[C@@]2(C)C=CC1=O :: Satisfied
3. CC1=C2[C@H]3OC(=O)[C@@H](CSc4ccccn4)[C@@H]3CC[C@@]2(C)C=CC1=O :: Satisfied
4. CC1=C2[C@H]3OC(=O)[C@@H](CSc4ccc(C)cc4)[C@@H]3CC[C@@]2(C)C=CC1=O :: Satisfied
5. CC1=C2[C@H]3OC(=O)[C@@H](C)[C@@H]3CC[C@@]2(C)C=CC1=O :: Not satisfied
6. CC1=C2[C@H]3OC(=O)[C@@H](CSc4ccc(F)cc4)[C@@H]3CC[C@@]2(C)C=CC1=O :: Satisfied
7. CCSC[C@@H]1C(=O)O[C@@H]2C3=C(C)C(=O)C=C[C@]3(C)CC[C@@H]12 :: Not satisfied
8. COc1ccccc1SC[C@@H]1C(=O)O[C@@H]2C3=C(C)C(=O)C=C[C@]3(C)CC[C@@H]12 :: Not satisfied
9. CC1=C2[C@H]3OC(=O)[C@@H](CSc4ccc(Br)cc4C)[C@@H]3CC[C@@]2(C)C=CC1=O :: Not satisfied
10. CC1=C2[C@H]3OC(=O)[C@@H](CSc4ccccc4N)[C@@H]3CC[C@@]2(C)C=CC1=O :: Not satisfied
11. CC1=C2[C@H]3OC(=O)[C@@H](CSC4CCCCC4)[C@@H]3CC[C@@]2(C)C=CC1=O :: Not satisfied
12. CC1=C2[C@H]3OC(=O)[C@@H](CSc4nc5ccccc5n4C)[C@@H]3CC[C@@]2(C)C=CC1=O :: Not satisfied
13. CC1=C2[C@H]3OC(=O)[C@@H](CSc4ccccc4Br)[C@@H]3CC[C@@]2(C)C=CC1=O :: Satisfied
14. CC1=C2[C@H]3OC(=O)[C@@H](CSc4nc5ccccc5c(=O)[nH]4)[C@@H]3CC[C@@]2(C)C=CC1=O :: Not satisfied
